- target-under-test: recombinant human MMP-12 catalytic domain (Homo sapiens)
- protocol-summary: Recombinant MMP fluorescent assay, MMP-12
- Format: biochemical
- assay-context: read-out: IC50 MMP-12; 1 hour preincubation at 37°C
pIC50: −log10 of the molar value.
parameter: pIC50

INSERT INTO results (compound, reading_qualifier, number) VALUES
  ('CC(C)[C@H](NS(=O)(=O)c1ccc(-c2ccc(Br)cc2)cc1)C(=O)O [PD166793, reference compound]', '>', 7.30),
  ('O=C(NCc1ccc(-c2ccccc2)cc1)c1cccc(=O)n1O [1,2-HOPO-2]', '=', 7.74);

###

// reported pIC50 for each item listed
- target-under-test: recombinant human MMP-9 catalytic domain (Homo sapiens)
- Sequence (P14780 107-444 limits assumed): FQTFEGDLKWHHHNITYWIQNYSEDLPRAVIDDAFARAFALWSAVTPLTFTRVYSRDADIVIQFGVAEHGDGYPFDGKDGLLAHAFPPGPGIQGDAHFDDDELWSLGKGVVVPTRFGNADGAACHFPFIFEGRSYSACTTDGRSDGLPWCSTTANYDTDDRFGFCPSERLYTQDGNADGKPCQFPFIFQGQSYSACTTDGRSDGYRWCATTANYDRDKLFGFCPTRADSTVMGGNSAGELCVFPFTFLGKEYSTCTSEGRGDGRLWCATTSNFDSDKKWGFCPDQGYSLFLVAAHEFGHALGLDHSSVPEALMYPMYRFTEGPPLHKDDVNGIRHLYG
- protocol-summary: Recombinant MMP fluorescent assay, MMP-9
- assay-context: read-out: IC50 MMP-9; 1 hour preincubation at 37°C
pIC50: −log10 of the molar value.
parameter: pIC50

INSERT INTO results (molecule, number) VALUES
  ('O=C(NCc1ccc(-c2ccccc2)cc1)c1cccc(=O)n1O [1,2-HOPO-2]', 4.57),
  ('CC(C)[C@H](NS(=O)(=O)c1ccc(-c2ccc(Br)cc2)cc1)C(=O)O [PD166793, reference compound]', 5.52);

###

- target-under-test: recombinant human MMP-7 catalytic domain (Homo sapiens)
- Sequence (P09237 95-267): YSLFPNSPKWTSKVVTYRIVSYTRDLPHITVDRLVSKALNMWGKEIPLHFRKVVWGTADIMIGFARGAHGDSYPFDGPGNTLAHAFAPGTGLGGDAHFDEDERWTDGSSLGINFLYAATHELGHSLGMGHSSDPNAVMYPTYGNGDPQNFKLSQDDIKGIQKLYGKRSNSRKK
- protocol-summary: Recombinant MMP fluorescent assay, MMP-7
- Assay type: biochemical
- assay-context: IC50 MMP-7, 1 hour preincubation at 37°C
pIC50: −log10 of the molar value.
parameter: pIC50

INSERT INTO results (molecule, number) VALUES
  ('COc1ccc(S(=O)(=O)N(Cc2cccnc2)[C@@H](C(=O)NO)C(C)C)cc1 [CGS27023A]', 6.30);

###

- target-under-test: recombinant human MMP-12 catalytic domain (Homo sapiens, UniProt P39900)
- Sequence (P39900 106-263 limits assumed): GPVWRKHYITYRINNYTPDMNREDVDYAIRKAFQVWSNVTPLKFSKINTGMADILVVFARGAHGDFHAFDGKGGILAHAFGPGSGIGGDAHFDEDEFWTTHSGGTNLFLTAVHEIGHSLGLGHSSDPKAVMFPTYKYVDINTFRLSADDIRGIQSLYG
- protocol-summary: Recombinant MMP fluorescent assay, MMP-12
- Format: biochemical
- assay-context: IC50 MMP-12, as stated in discussion text
parameter: IC50

INSERT INTO results (compound, result) VALUES
  ('COc1ccc(S(=O)(=O)N(Cc2cccnc2)[C@@H](C(=O)NO)C(C)C)cc1 [CGS27023A]', '≤ 50 nM');

###

// reported IC50 for each item listed
- target-under-test: recombinant human MMP-7 catalytic domain (Homo sapiens)
- protocol-summary: Recombinant MMP fluorescent assay, MMP-7
- Type: biochemical
- assay-context: read-out: IC50 MMP-7; 1 hour preincubation at 37°C
parameter: IC50 (nM)

INSERT INTO assay_data (compound, reading_qualifier, number) VALUES
  ('O=C(NCc1ccc(-c2ccccc2)cc1)c1cccc(=O)n1O', '>', 50000),
  ('CC(C)[C@H](NS(=O)(=O)c1ccc(-c2ccc(Br)cc2)cc1)C(=O)O [PD166793, reference compound]', '=', 3000);

###

- target-under-test: recombinant human MMP-12 catalytic domain (Homo sapiens, UniProt P39900)
- protocol-summary: Recombinant MMP fluorescent assay, MMP-12
- Type: biochemical
- assay-context: IC50 MMP-12, 1 hour preincubation at 37°C
pIC50: −log10 of the molar value.
parameter: pIC50

INSERT INTO measurements (molecule, target_under_test, parameter, result) VALUES
  ('COc1ccc(S(=O)(=O)N(Cc2cccnc2)[C@@H](C(=O)NO)C(C)C)cc1 [CGS27023A]', 'recombinant human MMP-12 catalytic domain (Homo sapiens, UniProt P39900)', 'pIC50', '> 7.30');
